- assay-target: CCR2 (Homo sapiens)
- Construct: expressed in transfected cells
- Sequence (P41597 whole entry, species assumed): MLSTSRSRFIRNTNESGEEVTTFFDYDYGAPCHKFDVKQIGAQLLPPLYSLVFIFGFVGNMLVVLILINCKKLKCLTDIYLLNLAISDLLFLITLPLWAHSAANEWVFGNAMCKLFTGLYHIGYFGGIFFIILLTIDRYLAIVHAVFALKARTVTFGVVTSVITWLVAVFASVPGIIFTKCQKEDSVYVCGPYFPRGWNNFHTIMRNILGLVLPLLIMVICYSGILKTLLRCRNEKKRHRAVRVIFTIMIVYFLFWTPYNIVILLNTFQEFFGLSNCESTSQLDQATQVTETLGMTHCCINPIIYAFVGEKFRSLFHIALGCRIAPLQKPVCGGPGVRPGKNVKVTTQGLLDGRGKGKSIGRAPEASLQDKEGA
- procedure-summary: CCR2 calcium activity assay (FLIPR Tetra) in HEK-Gqi5 cells stably expressing CCR2
- Assay type: cell-based
- test-parameters: calcium activity on FLIPR Tetra, chemokine positive control agonist
- Procedure: HEK-Gqi5 cells stably expressing CCR2 were cultured in DMEM high glucose, 10% FBS, 1% PSA, 400 μg/ml geneticin and 50 μg/ml hygromycin. Appropriate positive control chemokines (MCP-1, MIP1A or RANTES) was used as the positive control agonist for screening compound-induced calcium activity assayed on the FLIPR^Tetra. The drug plates were prepared in 384-well microplates using the EP3 and the MultiPROBE robotic liquid handling systems. Compounds were synthesized and tested for CCR2 activity.
assay-readout: % ANTAGONISM (%)

a: O=S(=O)(Nc1cncnc1[S+]([O-])Cc1ccccc1)c1cc2ccccc2o1 (stereo not drawn) [Compound 3]
b: O=S(=O)(Nc1cc(Cl)cnc1SCc1ccccc1)c1ccc(Cl)c(Cl)c1 [Compound 7]
Record comparison, field % ANTAGONISM: mark the lower of a and b . // respond with label for picked entry
b
(b: 46%, a: 95%)

---

- assay-target: CCR2 (Homo sapiens)
- Construct: expressed in transfected cells
- procedure-summary: CCR2 calcium activity assay (FLIPR Tetra) in HEK-Gqi5 cells stably expressing CCR2
- Format: cell-based
- test-parameters: calcium activity on FLIPR Tetra, chemokine positive control agonist, read-out: IC50 (nM), activity at CCR2 receptor
assay-readout: IC50 (nM)

Worked examples, 5 molecules total:
{"molecule": "O=S(=O)(Cc1ccccc1)c1ncc(Cl)cc1NS(=O)(=O)c1ccc(Cl)c(Cl)c1", "assay-target": "CCR2 (Homo sapiens)", "value-unit": "nM", "number": 37}
{"molecule": "O=S(=O)(Nc1ccncc1SCc1ccccc1)c1cc2ccccc2o1", "assay-target": "CCR2 (Homo sapiens)", "value-unit": "nM", "number": 485}
{"molecule": "O=S(=O)(Nc1cc[n+]([O-])cc1SCc1ccccc1)c1cc2ccccc2o1", "assay-target": "CCR2 (Homo sapiens)", "value-unit": "nM", "number": 8}
{"molecule": "O=S(=O)(Cc1ccccc1)c1ncncc1NS(=O)(=O)c1cc2ccccc2o1", "assay-target": "CCR2 (Homo sapiens)", "value-unit": "nM", "number": 135}
{"molecule": "O=S(=O)(Cc1ccccc1)c1ncc(Cl)cc1NS(=O)(=O)c1ccc(Cl)s1", "assay-target": "CCR2 (Homo sapiens)", "value-unit": "nM", "number": 263}

a: O=S(=O)(Nc1cc(Cl)cnc1[S+]([O-])Cc1ccccc1)c1ccc(Cl)c(Cl)c1 (centres unmarked)
b: O=S(=O)(Cc1ccccc1)c1cnccc1NS(=O)(=O)c1cc2ccccc2o1
c: O=S(=O)(Nc1cncnc1[S+]([O-])Cc1ccccc1)c1cc2ccccc2o1 (centres unmarked)
Arrange by IC50, high to low. Enter labels, ranked according to the request.
c, a, b
(c: 588 nM, a: 119 nM, b: 17 nM)
